The measurements presented in this section are drawn from ChEMBL document CHEMBL1201862.

The compounds listed here are annotated with their GI50.
test system: OVCAR-5; assay: NCI tumour cell line growth inhibition, 48 h
Calls of active or inactive are those of the source. Rule as the data show it: active = GI50 up to about 1.1 µM and inactive = higher.

- COCc1nc2c(OC)c(-c3nc4ccc(N5CCN(C)CC5)nc4[nH]3)cc(OC)c2n1C: 44.2 µM (inactive)
- N#Cc1c(N2CCCC2)nsc1Nc1ccc(F)cc1: > 100 µM (inactive)

What measured GI50 goes with CC(O)(/C=C/c1ccccc1)P(=O)(O)c1ccccc1 (stereo unspecified) ?
> 100 µM (inactive)

What would you report for `O=C1NC2(CCCCC2)C2=C1CCCCC2` ?
> 100 µM (inactive)

What would you report for OC(c1nc2ccccc2[nH]1)C(O)C(O)C(O)c1nc2ccccc2[nH]1 (stereo unspecified) ?
> 100 µM (inactive)

What would you report for `Cc1ccc(/C(O)=C/c2nc3ccccc3oc2=O)cc1` ?
> 100 µM (inactive)

---

system: UACC-257; assay: NCI tumour cell line growth inhibition, 48 h
Activity calls are given as the source filed them. Rule as the data show it: active = GI50 up to about 1.1 µM and inactive = higher.
measurement.label: GI50

Answered examples (6):
• O=C(NCC#CCO)C(F)(F)F = > 100 µM (inactive)
• O=c1[nH]nc(-c2ccccc2)n1-c1ccncc1 = > 100 µM (inactive)
• OC(c1nc2ccccc2[nH]1)C(O)C(O)C(O)c1nc2ccccc2[nH]1 (configuration not stated) = > 100 µM (inactive)
• O=C(ON=C1c2ccccc2C(Br)C(Br)c2ccccc21)c1ccccc1 (configuration not stated) = 15.6 µM (inactive)
• CCCCCCCCCCCCCCC[C@@H](O)C[N+](C)(C)CCO = 10.2 µM (inactive)
• O=C(c1cccs1)N(C(=O)N1CCC(c2ccccc2)CC1)c1ccccc1 = 40 µM (inactive)

What measured GI50 goes with CC1C(=O)CCC1C(Sc1ccccc1)(Sc1ccccc1)Sc1ccccc1 (configuration not stated) ?
31.5 µM (inactive)

What would you report for `C/C(=N\NC(=S)N/N=C(\C)c1ccccn1)c1ccccn1` ?
4.09 µM (inactive)

---

tested on: MDA-MB-435; experiment: NCI tumour cell line growth inhibition, 48 h
Activity calls are given as the source filed them. No stated cut-off is given here; in the data, active = GI50 up to about 1.1 µM and inactive = higher.
The molecules listed here are annotated with their GI50.

Answered examples (4):
• FC(F)(F)c1ccc2c(c1)nc(-c1ccc(Cl)cc1)n2CC1CCCN2CCCCC12 (stereo not given) = 16.9 µM (inactive)
• c1ccc(Cc2cc(-c3ccccc3)[nH]n2)cc1 = 10.3 µM (inactive)
• COC(=O)C1(Cc2ccccc2)Cc2cc3c(cc2C1O)CCC3 (stereo not given) = 16.3 µM (inactive)
• Cc1cc2nc3c(C#N)c(-c4ccccc4)cc(Nc4ccc(Cl)cc4)n3c2cc1C = > 100 µM (inactive)

Now for another entry.
What measured GI50 goes with `Cc1cc(C)c2ccc(N3CCNCC3)nc2n1` ?
> 100 µM (inactive)

---

test system: ACHN; assay: NCI tumour cell line growth inhibition, 48 h
Calls of active or inactive are those of the source. Cut-off read from the data, not from the text of the source: active = GI50 up to about 1.1 µM and inactive = higher.
The compounds listed here are annotated with their GI50.

Answered examples (3):
• O=C1C(C(c2ccc([N+](=O)[O-])cc2)N2CCOCC2)=C(O)C(c2ccccc2)N1c1ccccc1 (centres undefined) = > 10 µM (inactive)
• COCc1nc2c(OC)c(-c3nc4ccc(N5CCN(C)CC5)nc4[nH]3)cc(OC)c2n1C = 17.5 µM (inactive)
• N#CC(C#N)=c1c2nsnc2c(=C(C#N)C#N)c2nsnc12 = 1.81 µM (inactive)

What measured GI50 goes with COc1cc(-c2[o+]c3cc(O)cc(OC4OC(CO)C(O)C(O)C4O)c3cc2OC2OC(CO)C(O)C(O)C2O)cc(OC)c1O (centres undefined) ?
> 100 µM (inactive)

What would you report for CC(=O)OCC(OC(C)=O)C(OC(C)=O)C(OC(C)=O)C(=O)CNn1c(-c2ccccc2Cl)nc2ccc(Br)cc2c1=O (centres undefined) ?
> 100 µM (inactive)

---

test system: SF-295; experiment: NCI tumour cell line growth inhibition, 48 h
Activity calls are given as the source filed them. Rule as the data show it: active = GI50 up to about 1.1 µM and inactive = higher.
The compounds listed here are annotated with their GI50.

Answered examples (6):
- O=c1[nH]nc(-c2ccccc2)n1-c1ccncc1: > 100 µM (inactive)
- Oc1cccnc1/C=N/OCc1ccccc1: > 100 µM (inactive)
- Cc1cc2cc3cc(C)c(N)cc3nc2cc1N [ACRIDINE YELLOW]: 0.693 µM (active)
- O=C1CCN2C(=O)CCN12: > 100 µM (inactive)
- COc1cc2c(cc1OC)-c1c(oc3cc(OC4OC(CO)C(O)C(O)C4O)c(OC)cc3c1=O)C(O)O2 (stereo not given): > 100 µM (inactive)
- CCSc1c2ccccc2nc2c(OC)ccc(OC)c12: 25.2 µM (inactive)

What measured GI50 goes with `C=CCOCn1cnc2c(N)ncnc21` ?
> 100 µM (inactive)

What would you report for `CCc1nc2cc(/N=N/c3c(O)ccc4ccccc34)ccc2[nH]1` ?
20.8 µM (inactive)

What would you report for `Cc1nc(-c2cc3ccccc3oc2=O)cs1` ?
35.5 µM (inactive)

What would you report for Cc1cn(C2CC(N=[N+]=[N-])C(COP(=O)(O)OCC3OC(n4cc(F)c(=O)[nH]c4=O)CC3O)O2)c(=O)[nH]c1=O (stereo not given) ?
0.337 µM (active)

What would you report for c1c[nH]c(C23C4C5C6C4C2C6C53)n1 (stereo not given) ?
> 100 µM (inactive)

What would you report for `O=C1NCC2(CCN(Cc3ccccc3)CC2)N1` ?
> 100 µM (inactive)

What would you report for O=C1OC2(OC2c2ccc(Cl)cc2)c2ccccc21 (stereo not given) ?
85.7 µM (inactive)

What would you report for `CCC(=O)O[C@H]1CC[C@H]2[C@@H]3CCC4=C/C(=N/OC(=O)c5cccc6c(=O)c7ccccc7[nH]c56)CC[C@]4(C)[C@H]3CC[C@]12C` ?
29.9 µM (inactive)

What would you report for COc1ccc(-c2nc3ncccn3c2-c2ccc([S+](C)[O-])cc2)cc1 (stereo not given) ?
> 100 µM (inactive)

What would you report for `c1ccc2cc3n[se]nc3cc2c1` ?
39.4 µM (inactive)

What would you report for `C=CCN1C(=O)/C(=C/c2ccco2)N=C1SC/C=C/C` ?
40.4 µM (inactive)

What would you report for NC(Cc1c[nH]c2cc([N+](=O)[O-])ccc12)C(=O)O (stereo not given) ?
> 100 µM (inactive)

What would you report for `Cc1c2cnccc2c(C)c2c1c1ccccc1n2CCCCCCNCc1ccccc1` ?
1.82 µM (inactive)

What would you report for `CCOc1c(Br)cc(Br)cc1C=C(C#N)C#N` ?
7.53 µM (inactive)

What would you report for `CN(CCN(C)C(=O)CCOS(C)(=O)=O)C(=O)CCOS(C)(=O)=O` ?
> 100 µM (inactive)

What would you report for C=CC1=CC(C)C[C@]1(O)C(=O)OC (stereo not given in full) ?
< 0.01 µM (active)

What would you report for `Oc1c([Si](c2ccccc2)(c2ccccc2)c2ccccc2)cc2ccccc2c1-c1c(O)c([Si](c2ccccc2)(c2ccccc2)c2ccccc2)cc2ccccc12` ?
> 100 µM (inactive)

What would you report for COc1cccc2c1[C@H]1OC(=O)NC1CCCCC2 (stereo not given in full) ?
> 100 µM (inactive)

What would you report for `O=C1N/C(=N/N=C/c2ccccc2)N/C1=C\c1cccs1` ?
17.4 µM (inactive)

What would you report for `O=c1c2cc(Br)cc(Br)c2[nH]c(=S)n1-c1ccccc1` ?
> 100 µM (inactive)

---

system: DMS-114; assay: NCI tumour cell line growth inhibition, 48 h
Active and inactive are the calls of the source. No stated cut-off is given here; in the data, active = GI50 up to about 1.1 µM and inactive = higher.
measurement.label: GI50

Answered examples (3):
• CC(C)NC(=O)O/N=C1\CCC2[C@@H]3CC=C4C[C@@H](OC(=O)NC(C)C)CC[C@]4(C)C3CC[C@]12C (stereo partly specified) = 0.664 µM (active)
• CCC1(CN(C)C)CC/C(=C\c2ccc(OC)c(OC)c2)C1=O (stereo unspecified) = 99.8 µM (inactive)
• O=C(CNc1nncs1)NO = 54.3 µM (inactive)

What measured GI50 goes with COC(=O)C(Cc1c[nH]c2ccccc12)NC(=O)C(Cc1c[nH]c2ccccc12)NC(=O)OCc1ccccc1 (stereo unspecified) ?
19.4 µM (inactive)

What would you report for `COc1ccc2c(C(=O)O)cc3ccccc3c2c1OC` ?
17.7 µM (inactive)

What would you report for `O=C1CCN2C(=O)CCN12` ?
> 100 µM (inactive)

---

tested on: CAKI-1; assay: NCI tumour cell line growth inhibition, 48 h
Active and inactive are the calls of the source. No stated cut-off is given here; in the data, active = GI50 up to about 1.1 µM and inactive = higher. Peptide text beside a SMILES is read from it. * marks the point of attachment. Cbz = O=C(OCc1ccccc1)*; CH2Cl = ClC*
Reply using exactly one outcome from active, inactive

Field: example entries. Status: answers known.
• COC(OC)C1OC(CO)C(n2cc(F)c(=O)[nH]c2=O)C1O (stereo not drawn) = inactive
• COc1ccc(C(OC(C)=O)C2C(=C(C#N)C#N)c3ccccc3C2=C(C#N)C#N)cc1 (stereo not drawn) = inactive
• O=C(Nc1c(O)[nH]c(=S)[nH]c1=O)c1ccccc1 = inactive
• Cc1cc2nc3c(C#N)c4c(c(-c5ccc(Cl)cc5)n3c2cc1C)CCC4 = inactive
• C=Cc1ccc(C)[n+](C[Si](C)(C)O[Si](C)(C)C[n+]2cc(C=C)ccc2C)c1 = inactive

Fill in: this test's call for `CC(/C=N/N(C)C1=NCCCN1)=N/N(C)C1=NCCCN1` is ___
inactive

What would you report for CC(C)CC(NC(=O)OCc1ccccc1)C(=O)NC(Cc1ccccc1)C(=O)CCl (stereo not drawn) (Cbz-Leu-Phe-CH2Cl; configuration not given here) ?
inactive

What would you report for Cc1ccc(SCC(CF)OC(C)n2cnc3c(Cl)nc(N)nc32)cc1 (stereo not drawn) ?
inactive

What would you report for `CN[C@H](C)[C@@H](OC)c1ccccc1` ?
inactive

What would you report for `O=c1/c(=C/c2ccccn2)sc2nc3cc4c(cc3n12)OCCO4` ?
inactive

What would you report for C[C@@H](NC(=O)OC1C=CC2(CC1)C(=O)N(C)c1ccccc12)c1cccc2ccccc12 (stereo partly drawn) ?
inactive

What would you report for `CC(C)c1nc(Cl)nc(Cl)c1Cl` ?
active

What would you report for Nc1ccc2c(c1)C1Oc3ccccc3CC1CO2 (stereo not drawn) ?
inactive

What would you report for `O=[N+]([O-])C(=C(c1ccccc1)c1ccccc1)[N+](=O)[O-]` ?
inactive

What would you report for `O=C(c1ccc(-c2ccccc2)cc1)N(Cc1cccnc1)C(=S)N(Cc1cccnc1)C(=O)c1ccc(-c2ccccc2)cc1` ?
inactive

What would you report for CC1=NN=C(N)N/C1=C\C(Sc1ccc(Cl)cc1)c1ccc([N+](=O)[O-])cc1 (stereo not drawn) ?
inactive

What would you report for FC(F)(F)c1ccc2c(c1)nc(-c1ccc(Cl)cc1)n2CC1CCCN2CCCCC12 (stereo not drawn) ?
inactive

What would you report for CC(N/N=C(\S)N1CCCC1)c1cccnn1 (stereo not drawn) ?
active

What would you report for COC1=CC(=O)C2C(C1=O)[C@@H]1c3ccccc3OC[C@H]21 (stereo partly drawn) ?
inactive

What would you report for `O=c1cccccc1NCCCCNc1cccccc1=O` ?
inactive

What would you report for C[C@]12CC[C@H](O)CC1=CC[C@@H]1C2CC[C@]2(C)c3nn(-c4ccc(F)cc4)nc3CC12 (stereo partly drawn) ?
inactive

What would you report for `CC(C)=CCc1c(O)cc2oc(-c3ccc(O)cc3O)cc(=O)c2c1O` ?
inactive

What would you report for `O=c1oc2ccccc2n1P(=O)(n1c(=O)oc2ccccc21)n1c(=O)oc2ccccc21` ?
inactive
